- MEASURED TARGET: Apoptosis regulator Bcl-2 (Homo sapiens, UniProt P10415)
- Sequence (P10415 whole entry): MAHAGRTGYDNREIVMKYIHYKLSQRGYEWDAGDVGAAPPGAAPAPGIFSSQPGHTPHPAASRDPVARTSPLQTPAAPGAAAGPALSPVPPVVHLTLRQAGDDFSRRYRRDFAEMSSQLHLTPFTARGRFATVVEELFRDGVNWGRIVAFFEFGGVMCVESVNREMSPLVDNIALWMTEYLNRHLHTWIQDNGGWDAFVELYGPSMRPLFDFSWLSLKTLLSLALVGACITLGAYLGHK
- METHOD NOTES: Potency index, ratio of Ki for WL276 to Ki for test compound for inhibition of 5-FAM-tagged Bid-BH3 peptide binding to Bcl2 (unknown origin) by fluorescence polarization assay
ASSAY READOUT: Ratio Ki

Use these answered entries as a reference point.
Lab book: Ratio Ki of COc1ccc2c(c1)c(CC(=O)N[C@@H](Cc1ccc(OCc3cccc(C)c3)cc1)C(=O)NS(=O)(=O)c1ccc(Cl)c([N+](=O)[O-])c1)c(C)n2C(=O)c1ccc(Cl)cc1 noted as 2 to 3

Lab book: Ratio Ki of COc1ccc2c(c1)c(CC(=O)N[C@@H](Cc1ccc(OCc3ccccc3Br)cc1)C(=O)NS(=O)(=O)c1ccc(Cl)c([N+](=O)[O-])c1)c(C)n2C(=O)c1ccc(Cl)cc1 noted as 2 to 3

Lab book: Ratio Ki of COc1ccc2c(c1)c(CC(=O)N[C@@H](Cc1ccc(OCc3cccc(C#N)c3)cc1)C(=O)NS(=O)(=O)c1ccc(Cl)c([N+](=O)[O-])c1)c(C)n2C(=O)c1ccc(Cl)cc1 noted as 2 to 3

New cases:
Lab book: Ratio Ki of COc1ccc2c(c1)c(CC(=O)N[C@@H](Cc1ccc(OCc3ccc([N+](=O)[O-])cc3)cc1)C(=O)NS(=O)(=O)c1ccc(Br)cc1)c(C)n2C(=O)c1ccc(Cl)cc1 noted as 2 to 3

Lab book: Ratio Ki of COc1ccc2c(c1)c(CC(=O)N[C@@H](Cc1ccc(OCc3ccc(C)cc3)cc1)C(=O)NS(=O)(=O)c1ccc(Cl)c([N+](=O)[O-])c1)c(C)n2C(=O)c1ccc(Cl)cc1 noted as 2 to 3

Lab book: Ratio Ki of COc1cccc(COc2ccc(C[C@H](NC(=O)Cc3c(C)n(C(=O)c4ccc(Cl)cc4)c4ccc(OC)cc34)C(=O)NS(=O)(=O)c3ccc(Cl)c([N+](=O)[O-])c3)cc2)c1 noted as 2 to 3

Lab book: Ratio Ki of COc1ccc2c(c1)c(CC(=O)N[C@@H](Cc1ccc(OCc3ccccc3)cc1)C(=O)NS(=O)(=O)c1ccc(Br)cc1)c(C)n2C(=O)c1ccc(Cl)cc1 noted as 2 to 3

Lab book: Ratio Ki of COc1ccc2c(c1)c(CC(=O)N[C@@H](Cc1ccc(OCc3ccc(C#N)cc3)cc1)C(=O)NS(=O)(=O)c1ccc(Cl)c([N+](=O)[O-])c1)c(C)n2C(=O)c1ccc(Cl)cc1 noted as 2 to 3

Lab book: Ratio Ki of COc1ccc2c(c1)c(CC(=O)N[C@@H](Cc1ccc(OCc3ccccc3)cc1)C(=O)NS(=O)(=O)c1ccc(Cl)c([N+](=O)[O-])c1)c(C)n2C(=O)c1ccc(Cl)cc1 noted as 2 to 3

Lab book: Ratio Ki of COc1ccc2c(c1)c(CC(=O)N[C@@H](Cc1ccc(OCc3ccc(Br)cc3)cc1)C(=O)NS(=O)(=O)c1ccc(Cl)c([N+](=O)[O-])c1)c(C)n2C(=O)c1ccc(Cl)cc1 noted as 2 to 3

Lab book: Ratio Ki of COc1ccc2c(c1)c(CC(=O)N[C@@H](Cc1ccc(OCc3ccc4ccccc4c3)cc1)C(=O)NS(=O)(=O)c1ccc(Cl)c([N+](=O)[O-])c1)c(C)n2C(=O)c1ccc(Cl)cc1 noted as 2 to 3

Lab book: Ratio Ki of COc1ccc2c(c1)c(CC(=O)N[C@@H](Cc1ccc(OCc3ccc([N+](=O)[O-])cc3)cc1)C(=O)NS(=O)(=O)c1ccc(Cl)c([N+](=O)[O-])c1)c(C)n2C(=O)c1ccc(Cl)cc1 noted as 2 to 3

Lab book: Ratio Ki of COc1ccc2c(c1)c(CC(=O)N[C@@H](Cc1ccc(OCc3ccccc3C#N)cc1)C(=O)NS(=O)(=O)c1ccc(Cl)c([N+](=O)[O-])c1)c(C)n2C(=O)c1ccc(Cl)cc1 noted as 2 to 3

====

- MEASURED TARGET: UniProt P10415
- METHOD NOTES: Inhibition of 5-FAM-tagged Bid-BH3 peptide binding to Bcl2 (unknown origin) by fluorescence polarization assay
ASSAY READOUT: Ki

Use these answered entries as a reference point.
Lab book: Ki of COc1ccc2c(c1)c(CC(=O)N[C@@H](Cc1ccccc1)C(=O)NS(=O)(=O)c1ccccc1)c(C)n2C(=O)c1ccc(Cl)cc1 noted as Not Active

Lab book: Ki of COc1ccc2c(c1)c(CC(=O)N[C@H](C(=O)NS(=O)(=O)c1ccc(Cl)c([N+](=O)[O-])c1)C(C)C)c(C)n2C(=O)c1ccc(Cl)cc1 noted as Not Active

Lab book: Ki of COc1ccc2c(c1)c(CC(=O)NCC(=O)NS(=O)(=O)c1ccc(Br)cc1)c(C)n2C(=O)c1ccc(Cl)cc1 noted as Not Active

Lab book: Ki of COc1ccc2c(c1)c(CC(=O)N[C@@H](C)C(=O)NS(=O)(=O)c1ccc(Cl)c([N+](=O)[O-])c1)c(C)n2C(=O)c1ccc(Cl)cc1 noted as Not Active

Continue with the next compound.
Lab book: Ki of COc1ccc2c(c1)c(CC(=O)NCC(=O)NS(=O)(=O)c1ccc(Cl)c([N+](=O)[O-])c1)c(C)n2C(=O)c1ccc(Cl)cc1 noted as Not Active

====

- MEASURED TARGET: Induced myeloid leukemia cell differentiation protein Mcl-1 (Homo sapiens, UniProt Q07820)
- Sequence (Q07820 whole entry): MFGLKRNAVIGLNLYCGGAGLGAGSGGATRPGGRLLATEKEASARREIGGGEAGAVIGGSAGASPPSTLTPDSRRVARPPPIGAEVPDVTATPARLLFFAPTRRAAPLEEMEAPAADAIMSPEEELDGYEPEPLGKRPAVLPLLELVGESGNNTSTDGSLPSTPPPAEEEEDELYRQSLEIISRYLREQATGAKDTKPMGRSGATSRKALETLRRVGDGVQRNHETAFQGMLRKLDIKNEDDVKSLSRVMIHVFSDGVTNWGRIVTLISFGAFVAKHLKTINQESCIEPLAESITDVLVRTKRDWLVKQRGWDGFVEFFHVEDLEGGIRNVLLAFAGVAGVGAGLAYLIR
- METHOD NOTES: Inhibition of 5-FAM-tagged Bid-BH3 peptide binding to Mcl1 (unknown origin) by fluorescence polarization assay
ASSAY READOUT: Ki (nM)

Use these answered entries as a reference point.
Lab book: Ki of COc1ccc2c(c1)c(CC(=O)N[C@@H](Cc1ccc(OCc3ccc(Br)cc3)cc1)C(=O)NS(=O)(=O)c1ccc(Cl)c([N+](=O)[O-])c1)c(C)n2C(=O)c1ccc(Cl)cc1 noted as 440

Lab book: Ki of COc1ccc2c(c1)c(CC(=O)N[C@@H](Cc1ccc(OCc3ccc(C#N)cc3)cc1)C(=O)NS(=O)(=O)c1ccc(Cl)c([N+](=O)[O-])c1)c(C)n2C(=O)c1ccc(Cl)cc1 noted as 530

Lab book: Ki of O=C(O)CSc1cc(NS(=O)(=O)c2ccc(Br)cc2)c2ccccc2c1O noted as 180

Lab book: Ki of COc1ccc2c(c1)c(CC(=O)N[C@@H](Cc1ccc(OCc3ccccc3Br)cc1)C(=O)NS(=O)(=O)c1ccc(Cl)c([N+](=O)[O-])c1)c(C)n2C(=O)c1ccc(Cl)cc1 noted as 520

Lab book: Ki of COc1ccc2c(c1)c(CC(=O)N[C@@H](Cc1ccc(OCc3cccc(C#N)c3)cc1)C(=O)NS(=O)(=O)c1ccc(Cl)c([N+](=O)[O-])c1)c(C)n2C(=O)c1ccc(Cl)cc1 noted as 480

A = COc1ccc2c(c1)c(CC(=O)N[C@@H](Cc1ccc(OCc3cccc(C)c3)cc1)C(=O)NS(=O)(=O)c1ccc(Cl)c([N+](=O)[O-])c1)c(C)n2C(=O)c1ccc(Cl)cc1
B = Cc1ccc(S(=O)(=O)NC(=O)[C@H](Cc2ccccc2)N2C(=O)/C(=C/c3ccc(-c4ccccc4)cc3)SC2=S)cc1
Query string: Identify the entry with the smaller Ki: A or B . // respond with label for picked entry
Result string: A

====

- Tested on: Jurkat
- METHOD NOTES: Antiproliferative activity against human Jurkat cells assessed as reduction in cell growth incubated for 48 hrs by MTT assay
- Type: functional, cell-based
pIC50: −log10 of the molar value.
ASSAY READOUT: pIC50

Jurkat data for COc1cccc(COc2ccc(C[C@H](NC(=O)Cc3c(C)n(C(=O)c4ccc(Cl)cc4)c4ccc(OC)cc34)C(=O)NS(=O)(=O)c3ccc(Cl)c([N+](=O)[O-])c3)cc2)c1 ; its pIC50: 4.44

I = COc1ccc2c(c1)c(CC(=O)N[C@@H](Cc1ccc(OCc3ccccc3Br)cc1)C(=O)NS(=O)(=O)c1ccc(Cl)c([N+](=O)[O-])c1)c(C)n2C(=O)c1ccc(Cl)cc1
II = COc1ccc2c(c1)c(CC(=O)N[C@@H](Cc1ccc(OCc3ccc(C#N)cc3)cc1)C(=O)NS(=O)(=O)c1ccc(Cl)c([N+](=O)[O-])c1)c(C)n2C(=O)c1ccc(Cl)cc1
Query string: Identify the entry with the smaller pIC50: I or II . // respond with label for picked entry
Result string: II
(II: 4.08, I: 4.47)

====

- MEASURED TARGET: Apoptosis regulator Bcl-2 (Homo sapiens)
- METHOD NOTES: Inhibition of 5-FAM-tagged Bid-BH3 peptide binding to Bcl2 (unknown origin) by fluorescence polarization assay
- TEST PARAMETERS: read-out: Ki
ASSAY READOUT: Ki (nM)

Lab book: Ki of CCCOc1ccc(C[C@H](NC(=O)Cc2c(C)n(C(=O)c3ccc(Cl)cc3)c3ccc(OC)cc23)C(=O)NS(=O)(=O)c2ccc(Cl)c([N+](=O)[O-])c2)cc1 noted as 1300

Lab book: Ki of COc1ccc2c(c1)c(CC(=O)N[C@@H](Cc1ccc(OCc3ccc([N+](=O)[O-])cc3)cc1)C(=O)NS(=O)(=O)c1ccc(Cl)c([N+](=O)[O-])c1)c(C)n2C(=O)c1ccc(Cl)cc1 noted as 510

Lab book: Ki of COc1ccc2c(c1)c(CC(=O)N[C@@H](Cc1ccc(OCc3ccc4ccccc4c3)cc1)C(=O)NS(=O)(=O)c1ccc(Cl)c([N+](=O)[O-])c1)c(C)n2C(=O)c1ccc(Cl)cc1 noted as 560

Lab book: Ki of COc1ccc2c(c1)c(CC(=O)N[C@@H](Cc1ccc(OCc3ccc(C#N)cc3)cc1)C(=O)NS(=O)(=O)c1ccc(Cl)c([N+](=O)[O-])c1)c(C)n2C(=O)c1ccc(Cl)cc1 noted as 470

Lab book: Ki of O=C(O)CSc1cc(NS(=O)(=O)c2ccc(Br)cc2)c2ccccc2c1O noted as 2900

1 = COc1ccc2c(c1)c(CC(=O)N[C@@H](Cc1ccc(OCc3ccccc3Br)cc1)C(=O)NS(=O)(=O)c1ccc(Cl)c([N+](=O)[O-])c1)c(C)n2C(=O)c1ccc(Cl)cc1
2 = CCC(C)[C@H](NC(=O)Cc1c(C)n(C(=O)c2ccc(Cl)cc2)c2ccc(OC)cc12)C(=O)NS(=O)(=O)c1ccc(Cl)c([N+](=O)[O-])c1 (stereo partly drawn)
Query string: Identify the entry with the smaller Ki: 1 or 2 . // respond with label for picked entry
Result string: 1
